Recorded values, source patent US20250206828A1.

target_desc: human A2aR (Homo sapiens, UniProt P29274)
Sequence (P29274 whole entry): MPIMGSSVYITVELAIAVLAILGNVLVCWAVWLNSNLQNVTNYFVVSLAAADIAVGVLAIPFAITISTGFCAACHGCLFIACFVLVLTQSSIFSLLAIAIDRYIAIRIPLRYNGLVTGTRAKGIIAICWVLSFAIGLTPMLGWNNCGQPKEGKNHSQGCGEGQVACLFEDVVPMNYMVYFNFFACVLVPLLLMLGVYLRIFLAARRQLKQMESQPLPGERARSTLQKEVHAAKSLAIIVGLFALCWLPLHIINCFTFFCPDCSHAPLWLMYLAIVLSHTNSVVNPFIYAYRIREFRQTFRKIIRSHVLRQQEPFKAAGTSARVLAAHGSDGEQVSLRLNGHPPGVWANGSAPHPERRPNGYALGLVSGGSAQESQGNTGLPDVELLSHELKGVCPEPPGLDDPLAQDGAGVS
assay_details: Binding of humanized anti-A2aR antibodies in transfected Expi293F cell supernatant to human A2aR on HEK293 cells (FACS, MFI)
measurement_parameters: supernatant with 1 μg/ml antibody; HEK293 overexpressing human A2aR; heavy chain (row) x light chain
reported_property: MFI, binding to human A2aR on cell surface (3F8-12E9 derived)

molecule: Hu3F8-H5/Hu3F8-L1: humanized anti-A2aR IgG1 FES antibody; HCVR SEQ ID NO:68, LCVR SEQ ID NO:84 (antibody, V domains shown) VH: EVQLVQSGAEVKKPGASVKVSCKASGFTFTRYWMNWVRQAPGQGLEWIGRIDPSDSETHYNAKFWGRATLTVDKSTSTVYMELSSLRSEDTAVYYCLRSLYGKGDYWGQGTTVTVSS VL: DVVMTQSPLSLPVTLGQPASISCRSSQSIVHSNGNTYLEWFQQRPGQSPRRLIYKVSNRFSGVPDRFSGSGSGTDFTLKISRVEAEDVGVYYCYQGSHVPLTFGGGTKVEIK
recorded_value: 58
